# test system: Seed linoleate 13S-lipoxygenase-1 (Glycine max) (UniProt P08170)
# assay protocol: Inhibition of soybean LOX1 at 100 uM
value kind: inhibition (%)

A: O=C(CN1CCCCC1)Nc1nc(C23CC4CC(CC(C4)C2)C3)cs1
B: CN(C)CC(=O)Nc1nc(C23CC4CC(CC(C4)C2)C3)cs1
C: O=C(CCN1CCN(c2ccccc2)CC1)Nc1nc(C23CC4CC(CC(C4)C2)C3)cs1
Q: List the 3 compounds shown above, ordered by increasing inhibition. To answer, write out the labels according to the requested order.
A: A, B, C
(A: 0%, B: 26.4%, C: 39%)

###

# test system: Prostaglandin G/H synthase 2 (Homo sapiens) (UniProt P35354)
# Sequence (P35354 whole entry): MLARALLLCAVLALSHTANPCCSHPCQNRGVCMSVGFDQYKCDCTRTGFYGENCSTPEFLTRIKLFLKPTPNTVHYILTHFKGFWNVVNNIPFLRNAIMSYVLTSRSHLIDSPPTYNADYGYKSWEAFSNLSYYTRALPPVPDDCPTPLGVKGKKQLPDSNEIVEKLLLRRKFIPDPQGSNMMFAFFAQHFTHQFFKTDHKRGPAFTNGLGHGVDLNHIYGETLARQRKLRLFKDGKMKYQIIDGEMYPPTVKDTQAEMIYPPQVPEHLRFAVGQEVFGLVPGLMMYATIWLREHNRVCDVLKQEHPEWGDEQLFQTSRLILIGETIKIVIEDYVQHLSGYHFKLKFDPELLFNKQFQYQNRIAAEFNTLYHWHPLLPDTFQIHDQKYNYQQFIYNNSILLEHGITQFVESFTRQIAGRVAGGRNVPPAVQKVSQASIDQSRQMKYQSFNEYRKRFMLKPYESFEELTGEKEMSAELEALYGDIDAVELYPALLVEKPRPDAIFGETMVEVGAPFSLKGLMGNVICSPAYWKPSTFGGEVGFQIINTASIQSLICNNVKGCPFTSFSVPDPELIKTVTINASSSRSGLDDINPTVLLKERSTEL
# assay protocol: Inhibition of human recombinant COX2 at 200 uM by enzyme immuno assay
value kind: inhibition (%)

O=C(CN1CCCC1)Nc1nc(C23CC4CC(CC(C4)C2)C3)cs1 = 12.2

1: CN(C)CC(=O)Nc1nc(C23CC4CC(CC(C4)C2)C3)cs1
2: O=C(CN1CCN(c2ccccc2)CC1)Nc1nc(C23CC4CC(CC(C4)C2)C3)cs1
3: CN(C)CCC(=O)Nc1nc(C23CC4CC(CC(C4)C2)C3)cs1
4: O=C(CN1CCOCC1)Nc1nc(C23CC4CC(CC(C4)C2)C3)cs1
Q: Put the entries in order of inhibition, starting with the largest number. To answer, write out the labels according to the requested order.
A: 4, 2, 3, 1
(4: 35.3%, 2: 15.8%, 3: 8.6%, 1: 3.6%)

###

# test system: Prostaglandin G/H synthase 1 (Ovis aries)
# assay protocol: Inhibition of ovine COX1 at 200 uM by enzyme immuno assay
value kind: inhibition (%)

CN(C)CCC(=O)Nc1nc(C23CC4CC(CC(C4)C2)C3)cs1 = 25
CN(C)CC(=O)Nc1nc(C23CC4CC(CC(C4)C2)C3)cs1 = 25
O=C(CN1CCOCC1)Nc1nc(C23CC4CC(CC(C4)C2)C3)cs1 = 27.9
O=C(CN1CCN(c2ccccc2)CC1)Nc1nc(C23CC4CC(CC(C4)C2)C3)cs1 = 43.6
O=C(CN1CCCC1)Nc1nc(C23CC4CC(CC(C4)C2)C3)cs1 = 33.6

###

# test system: Seed linoleate 13S-lipoxygenase-1 (Glycine max) (UniProt P08170)
# Sequence (whole entry): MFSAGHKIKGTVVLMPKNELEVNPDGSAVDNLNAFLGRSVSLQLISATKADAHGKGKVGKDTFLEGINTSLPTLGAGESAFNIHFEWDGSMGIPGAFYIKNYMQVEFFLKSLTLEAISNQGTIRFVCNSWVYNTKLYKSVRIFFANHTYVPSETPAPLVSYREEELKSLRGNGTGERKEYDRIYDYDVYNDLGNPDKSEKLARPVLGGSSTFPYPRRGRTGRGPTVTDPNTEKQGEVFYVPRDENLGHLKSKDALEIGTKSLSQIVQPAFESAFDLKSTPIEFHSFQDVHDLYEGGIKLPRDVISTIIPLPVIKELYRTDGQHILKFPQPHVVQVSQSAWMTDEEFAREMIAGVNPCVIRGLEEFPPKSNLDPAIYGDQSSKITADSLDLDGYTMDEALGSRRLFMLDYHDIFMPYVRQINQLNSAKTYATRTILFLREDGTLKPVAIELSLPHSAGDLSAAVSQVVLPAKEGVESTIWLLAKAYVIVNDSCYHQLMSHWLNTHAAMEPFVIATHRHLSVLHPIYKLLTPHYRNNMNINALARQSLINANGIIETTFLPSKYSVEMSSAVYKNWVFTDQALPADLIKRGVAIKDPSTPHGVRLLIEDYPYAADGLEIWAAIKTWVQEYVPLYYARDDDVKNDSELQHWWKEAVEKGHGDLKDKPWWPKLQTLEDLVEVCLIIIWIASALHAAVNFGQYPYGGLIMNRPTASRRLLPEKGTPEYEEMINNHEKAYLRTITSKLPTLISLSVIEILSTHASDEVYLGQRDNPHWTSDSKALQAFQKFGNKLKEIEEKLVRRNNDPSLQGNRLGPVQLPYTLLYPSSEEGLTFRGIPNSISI
# assay protocol: Inhibition of soybean LOX1 at 100 uM
value kind: inhibition (%)

O=C(CN1CCOCC1)Nc1nc(C23CC4CC(CC(C4)C2)C3)cs1 = 0
O=C(CN1CCCC1)Nc1nc(C23CC4CC(CC(C4)C2)C3)cs1 = 5

1: O=C(CN1CCN(c2ccccc2)CC1)Nc1nc(C23CC4CC(CC(C4)C2)C3)cs1
2: CN(C)CCC(=O)Nc1nc(C23CC4CC(CC(C4)C2)C3)cs1
3: O=C(CCN1CCOCC1)Nc1nc(C23CC4CC(CC(C4)C2)C3)cs1
Q: Put the entries in order of inhibition, starting with the largest number. To answer, write out the labels according to the requested order.
A: 1, 3, 2
(1: 33%, 3: 8.4%, 2: 1%)
